Listing: Ba/F3 Ros1 L2026M (-IL-3) pIC50 of selected compounds
# TESTED_TARGET: Ba/F3 cells containing Ros1 with a mutation at the gatekeeper residue (L2026M) (Homo sapiens, UniProt P08922, L2026M, cells depend on it, form not given)
# Sequence (P08922 whole entry L2026M, form open): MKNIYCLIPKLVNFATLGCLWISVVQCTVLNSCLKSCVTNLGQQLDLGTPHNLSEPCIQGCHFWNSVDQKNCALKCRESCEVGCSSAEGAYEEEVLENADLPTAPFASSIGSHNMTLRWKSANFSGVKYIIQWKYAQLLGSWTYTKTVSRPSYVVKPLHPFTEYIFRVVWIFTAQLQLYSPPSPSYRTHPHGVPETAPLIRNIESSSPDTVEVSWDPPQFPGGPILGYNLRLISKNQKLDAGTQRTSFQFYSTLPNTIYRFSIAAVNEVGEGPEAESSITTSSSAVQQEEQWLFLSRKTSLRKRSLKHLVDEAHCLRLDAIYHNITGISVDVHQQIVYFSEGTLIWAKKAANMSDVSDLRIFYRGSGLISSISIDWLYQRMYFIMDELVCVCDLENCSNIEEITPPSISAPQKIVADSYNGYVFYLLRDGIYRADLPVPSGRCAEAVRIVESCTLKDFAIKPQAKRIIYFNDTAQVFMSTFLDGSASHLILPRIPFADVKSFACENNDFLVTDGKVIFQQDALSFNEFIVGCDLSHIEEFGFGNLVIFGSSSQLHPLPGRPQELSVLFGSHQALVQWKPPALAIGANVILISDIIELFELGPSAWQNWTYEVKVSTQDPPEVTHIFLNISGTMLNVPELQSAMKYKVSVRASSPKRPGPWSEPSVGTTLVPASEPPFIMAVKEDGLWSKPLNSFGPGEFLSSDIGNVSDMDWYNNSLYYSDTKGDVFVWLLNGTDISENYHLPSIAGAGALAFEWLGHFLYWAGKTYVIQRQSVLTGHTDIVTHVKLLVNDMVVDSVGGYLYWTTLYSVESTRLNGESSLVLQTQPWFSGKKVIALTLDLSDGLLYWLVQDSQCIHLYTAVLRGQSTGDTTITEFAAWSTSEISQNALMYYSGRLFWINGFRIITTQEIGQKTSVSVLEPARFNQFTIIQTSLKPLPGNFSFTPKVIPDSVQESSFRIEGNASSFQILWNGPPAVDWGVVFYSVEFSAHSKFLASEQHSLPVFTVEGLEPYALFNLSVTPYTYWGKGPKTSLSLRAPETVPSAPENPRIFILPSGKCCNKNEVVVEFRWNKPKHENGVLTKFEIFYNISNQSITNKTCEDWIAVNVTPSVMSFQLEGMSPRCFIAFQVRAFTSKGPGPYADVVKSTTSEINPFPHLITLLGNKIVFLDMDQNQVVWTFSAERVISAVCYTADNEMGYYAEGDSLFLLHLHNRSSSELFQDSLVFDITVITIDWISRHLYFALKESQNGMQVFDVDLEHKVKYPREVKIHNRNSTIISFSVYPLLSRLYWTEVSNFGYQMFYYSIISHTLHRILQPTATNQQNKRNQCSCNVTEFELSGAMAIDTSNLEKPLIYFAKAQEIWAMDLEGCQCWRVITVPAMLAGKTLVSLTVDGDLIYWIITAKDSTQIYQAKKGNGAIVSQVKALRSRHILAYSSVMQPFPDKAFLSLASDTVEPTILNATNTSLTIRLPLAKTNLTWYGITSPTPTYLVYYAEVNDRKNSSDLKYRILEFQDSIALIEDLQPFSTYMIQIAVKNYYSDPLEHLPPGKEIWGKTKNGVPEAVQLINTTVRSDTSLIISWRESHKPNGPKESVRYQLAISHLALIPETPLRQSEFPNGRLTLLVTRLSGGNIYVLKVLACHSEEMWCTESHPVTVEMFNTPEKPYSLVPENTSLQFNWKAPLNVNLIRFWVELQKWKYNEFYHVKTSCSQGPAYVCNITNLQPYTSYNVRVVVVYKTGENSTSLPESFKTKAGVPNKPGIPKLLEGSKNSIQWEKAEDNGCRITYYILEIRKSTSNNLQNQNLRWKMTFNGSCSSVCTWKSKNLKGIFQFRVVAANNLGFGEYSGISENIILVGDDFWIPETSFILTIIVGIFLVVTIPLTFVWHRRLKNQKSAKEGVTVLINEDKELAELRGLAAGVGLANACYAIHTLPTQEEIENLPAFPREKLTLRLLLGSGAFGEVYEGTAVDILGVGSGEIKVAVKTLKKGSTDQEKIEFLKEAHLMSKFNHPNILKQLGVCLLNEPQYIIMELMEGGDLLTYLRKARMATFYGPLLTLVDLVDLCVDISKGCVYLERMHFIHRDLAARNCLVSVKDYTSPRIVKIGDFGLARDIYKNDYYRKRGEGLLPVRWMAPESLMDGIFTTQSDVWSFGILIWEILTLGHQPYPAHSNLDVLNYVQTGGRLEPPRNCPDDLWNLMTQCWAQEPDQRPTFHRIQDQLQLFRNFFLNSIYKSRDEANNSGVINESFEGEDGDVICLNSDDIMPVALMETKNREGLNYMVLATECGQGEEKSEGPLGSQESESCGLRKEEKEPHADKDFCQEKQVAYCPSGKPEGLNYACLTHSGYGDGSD
# MEASUREMENT_PROTOCOL: Ba/F3-Ros1 cell proliferation assay, L2026M gatekeeper mutant
# Format: cell-based, murine
# ASSAY_CONTEXT: without IL-3
Reply: number alone, nothing else.

Worked cases, answers included:
{"COMPOUND": "CC(C)c1ccc(COc2ccc(-c3c(-c4ccncn4)nn4c3C(=O)N(CCOCCO)CC4)cc2)cc1", "MEASUREMENT": 7.1}
{"COMPOUND": "CNC(=O)C(Oc1ccc(-c2c(-c3ccncc3)nn3c2C(=O)NCC3)cc1)c1ccc(C(C)C)cc1 (stereo not shown)", "MEASUREMENT": 6.0}
{"COMPOUND": "CC(C)c1ccc(COc2ccc(-c3c(-c4ccncc4)nn4c3C(=O)NCC4)cc2Cl)cc1", "MEASUREMENT": 6.5}

Proceed to the following item.
q: Note down Ba/F3 Ros1 L2026M (-IL-3) pIC50 recorded for CC(C)c1ccc(COc2ccc(-c3c(-c4ccncc4Cl)nn4c3C(=O)NCC4)cc2)cc1
a: 7.1
